# reported growth inhibition; entries follow
- Test Summary: NCI Yeast Anticancer Drug Screen. Data for the sgs1 mgt1 strain (AID 161);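 further: 0% = growth of cultures given vehicle only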
- Assay Conditions: S. cerevisiae sgs1 mgt1 strain, at 5.0 µM (retest, dose inferred, filed as 0.5), hits give high values
- Experimental: Growth inhibition of yeast strains with defined genetic alterations is measured as a screen for potential anti-cancer activity. Selected strains with alterations in DNA damage repair or cell cycle control were exposed to compounds and growth inhibition was measured relative to vehicle treated controls. The strain used in this assay is sgs1 mgt1
The panel holds about 79,000 compounds, 15% with a hit somewhere; the sample as a whole holds those more often.
Observation Type: growth inhibition (%)

> print(dat)
                                    molecule  recorded.result
 1        Cc1ccc(N=C=C(c2ccccc2)c2ccccc2)cc1               17
 2      Cc1ccc2nc(-[n+]3cc4ccccc4cc3C)ccc2c1                3
 3  N#[N+]c1ccc2c(S(=O)(=O)Oc3ccc(C(=O)c4ccccc4)c(OS(=O)(=O)c4cccc5c([O-])c([N+]#N)ccc45)c3)cccc2c1[O-]                1
 4  O=C1Nc2ccccc2/C1=N\N=c1/scc(-c2ccccc2)n1-c1ccccc1                8
 5         OCc1ccccc1CC(O)(c1ccccc1)c1ccccc1               -7
 6  COc1ccc(-n2c(=O)c3[nH]c(=S)[nH]c3n(-c3ccc(OC)cc3)c2=S)cc1                7
 7  FC(F)(F)C(C1=NC(C(F)(F)F)(C(F)(F)F)N=C(N2CCOCC2)O1)C(F)(F)F               20
 8  Cc1c(C)n(-c2ccccc2)c2nc(S(C)(=O)=O)nc(S(C)(=O)=O)c12              -15
 9   Nc1ccc(S(=O)(=O)O)c2cccc(S(=O)(=O)O)c12               -2
10  O=C1NN(C2=NNC3(C(=O)N2)c2ccccc2-c2ccccc23)C(c2ccccc2)=N/C1=C/c1ccc(O)cc1               -9
11                          O=c1ccccc(Br)c1O                6
12  N#CCC1CC(=O)c2[nH]c3ccccc3c2C1 (stereo not given)              -64
13                     COC(=O)C(C#N)=C(SC)SC               17
14  CCC(c1cccc(O)c1)C(CC)c1cccc(O)c1 (stereo not given)               51
15  O=C(Nc1ccccc1)Oc1c(Cl)c(Cl)c(Cl)c(Cl)c1Cl               26
16                       O=C1CCCC/C1=C(\Br)I               28
17  CCCCNC(=S)NC1C2CC3CC(C2)CC1C3 (stereo not given)               -4
18  O=C(Nc1ccc(S(=O)(=O)NC2CCCCC2)cc1)OC1CCCCC1               66
19  CCC[CH2][Ge]([CH2]CCC)([CH2]CCC)[O]C(C)=O                4
20  COc1ccc(/C=C2\CCC(CN(C)C)C2=O)cc1 (stereo not given)               33
